The reported measurements were obtained from PubChem BioAssay (NCI).

Attribute: growth inhibition
Assay: NCI Yeast Anticancer Drug Screen. Data for the sgs1 strain (AID 173);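 also: 0% = growth of vehicle-only control cultures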
Details: S. cerevisiae sgs1 mutant, at 1.2 µM, hits give high values
This is part of a sample that, as a whole, favours compounds with a hit. Of some 79,000 tested, about 15% had one in any assay.
Please state the figure in %; there is no need to write the unit.

Some solved entries appear below for comparison.
Nc1nc(N)c2c(n1)CCC(S(=O)(=O)c1ccc3ccccc3c1)C2 (centres undefined); 16
NNC(=S)Nc1cccc2ccccc12; -14
Nc1nc2c(c(=O)[nH]1)NC(CCNc1ccc(C(=O)O)cc1)CN2 (centres undefined); -2

With those in mind, consider the next molecule.
Prompt line: Kindly indicate its recorded growth inhibition. Item: COc1cc2c(cc1C[N+](C)(C)CSc1ccccc1)-c1ccccc1CC2
Response line: 2
